system: HCT-116; experiment: NCI tumour cell line growth inhibition, 48 h
Activity calls are given as the source filed them. Rule as the data show it: active = GI50 up to about 1.1 µM and inactive = higher.
Answer with one of the outcomes Y = active, N = inactive

molecule=O=C(Nc1ccccc1)c1cc2cc(CCl)ccc2oc1=O class_name=N

Kindly review the next molecule as well.
In: Can you look up the reported call for `COc1ccc2/c(=C/c3ccc(N(C)C)cc3)c3cc(-c4ccccc4)[n+](C)n3c2c1` for me?
Out: Y

* * *

tested on: DLD-1; experiment: NCI tumour cell line growth inhibition, 48 h
The source made the active and inactive calls. No stated cut-off is given here; in the data, active = GI50 up to about 1.1 µM and inactive = higher.
Measured Property: GI50

Worked set:
molecule=O=C(Cc1nc2ccccc2s1)C(=O)Nc1ccccc1C(F)(F)F experimental_target=DLD-1 recorded_value="> 100 µM (inactive)"
molecule="CC(NC(=O)c1ccccc1)C(=O)N(Cc1ccccc1)Cc1ccccc1 (configuration not stated)" experimental_target=DLD-1 recorded_value="31.4 µM (inactive)"
molecule="CS(=O)(=O)OC1CCC2(C#N)CCC1C2=O (configuration not stated)" experimental_target=DLD-1 recorded_value="> 100 µM (inactive)"
molecule="CC(C)[Si](OCC1CC(C#N)OC(C)(C)O1)(C(C)C)C(C)C (configuration not stated)" experimental_target=DLD-1 recorded_value="44.4 µM (inactive)"
molecule=CCn1c2ccccc2c2ccc3c(c21)C(=O)c1ccccc1C3=O experimental_target=DLD-1 recorded_value="> 100 µM (inactive)"

Please turn your attention to the following entry.
In: So what's the measured GI50 for this one? `CSC(=S)N(C)NC(=O)c1cccc(C(=O)NN(C)C(=S)SC)n1`
Out: 27.2 µM (inactive)
